// reported weight of spleen (spleen index) per item
- experimentSummary: immunity organ weight test (thymus gland index, spleen index)
- Type: in vivo, BALB/c mice
- measurementContext: peptide 500 μg/kg/day i.p. 15 days; X ± SD
No end group written: not given here.
reportedMetric: weight of spleen (spleen index) (%)

[
  {
    "substance": "FNFVPP [CMS003]",
    "observed": 0.40
  },
  {
    "substance": "LRVAPEEHPTL [CMS009]",
    "observed": 0.41
  },
  {
    "substance": "LRVAPEEHPVL [CMS013]",
    "observed": 0.44
  },
  {
    "substance": "PTTKTYFPHF [CMS001]",
    "observed": 0.43
  },
  {
    "substance": "Ala Gly Asp Asp Ala Pro Arg Ala Val Phe (AGDDAPRAVF; listed as Sus scrofa) [CMS007]",
    "observed": 0.32
  },
  {
    "substance": "VGMGQKDSY [CMS019]",
    "observed": 0.63
  },
  {
    "substance": "PSIVGRPRHQGVM [CMS015]",
    "observed": 0.36
  },
  {
    "substance": "MATAASSSSL [CMS021]",
    "observed": 0.36
  },
  {
    "substance": "RVAPEEHPTL [CMS011]",
    "observed": 0.41
  }
]

###

// reported anti-SRBC antibody formation (sample serum index) per item
- Tested on: anti-SRBC antibody
- experimentSummary: Sheep Red Blood Cell (SRBC) hemolysis test, anti-SRBC antibody formation
- Assay type: in vivo, BALB/c mice
- measurementContext: peptide 500 μg/kg/day i.p. 15 days, SRBC on day 12; IFN-γ and IL-2 groups 3×10^5 IU/kg/day; X ± SD
Marks after values point to notes of the source that are not given here. No end group written: not given here.
reportedMetric: anti-SRBC antibody formation (sample serum index)

[
  {
    "substance": "VGMGQKDSY [CMS019]",
    "observed": "91 ± 26*^@ Unit"
  },
  {
    "substance": "KAVGHLDDLPGAL [CMS008]",
    "observed": "82 ± 15*^@ Unit"
  },
  {
    "substance": "PSIVGRPRHQGVM [CMS015]",
    "observed": "136 ± 22*^@^ Unit"
  },
  {
    "substance": "VVYPWTQRF [CMS002]",
    "observed": "87 ± 18*^@ Unit"
  },
  {
    "substance": "LGMEACGIHETTY [CMS012]",
    "observed": "141 ± 21*^@^ Unit"
  },
  {
    "substance": "LRVAPEEHPVL [CMS013]",
    "observed": "80 ± 16*^@ Unit"
  },
  {
    "substance": "IGMESAGIHETTY [CMS016]",
    "observed": "143 ± 38*^@^ Unit"
  },
  {
    "substance": "VAPEEHPTLLTEAPLNPK [CMS010]",
    "observed": "112 ± 30*^@^ Unit"
  },
  {
    "substance": "VGMGQKDSYV [CMS020]",
    "observed": "155 ± 35*^@^ Unit"
  },
  {
    "substance": "VGMGEKDSY [CMS018]",
    "observed": "66 ± 16* Unit"
  },
  {
    "substance": "FNFVPP [CMS003]",
    "observed": "96 ± 18*^@ Unit"
  },
  {
    "substance": "LRVAPEEHPTL [CMS009]",
    "observed": "113 ± 22*^@^ Unit"
  },
  {
    "substance": "Ala Gly Asp Asp Ala Pro Arg Ala Val Phe (AGDDAPRAVF; listed as Sus scrofa) [CMS007]",
    "observed": "69 ± 17*^@ Unit"
  },
  {
    "substance": "RVAPEEHPTL [CMS011]",
    "observed": "188 ± 16*^@^ Unit"
  }
]
